- PROTOCOL_NOTES: NAL depletion percent, HPLC-fluorescence detection
- SETTINGS: single substance, test substance solution 1 mmol/L, fluorescence method
Provide the reported NAL depletion (%) of each item.
Give the value; after it, write the unit.

CC(=O)C(C)=O [2,3-Butanedione] :: 17.7%

Quick request: NAL depletion (%) for each listed item, please.
1. CCN(CCNS(C)(=O)=O)c1ccc(N)c(C)c1.CCN(CCNS(C)(=O)=O)c1ccc(N)c(C)c1.O=S(=O)(O)O.O=S(=O)(O)O.O=S(=O)(O)O [CD3]
2. CCCCCCC(C=O)=Cc1ccccc1 [α-Hexylcinnamaldehyde]
3. CCCOC(=O)c1cc(O)c(O)c(O)c1 [Propyl gallate]
4. O=c1c(O)c(O)c1=O [Squaric acid]
5. CCC/C=C/C=O [trans-2-Hexanal]
6. CC(=O)C(=O)CC(C)C [5-Methyl-2,3-hexanedione]
7. O=CC=O [Glyoxal]

[out]
1: 8.1%; 2: 0.0%; 3: 65.3%; 4: 0.1%; 5: 11.4%; 6: 26.1%; 7: 0.4%

====

- PROTOCOL_NOTES: NAL depletion percent, HPLC-fluorescence detection
- SETTINGS: Fluorescence method; non-allergenic substance
- Description: 1) To a 50 mL vessel, 12.6 mg (±0.1 mg) of NAL is weighed; to this, a 25 mL measuring pipet is used to add 20 mL of 100 mmol/L phosphate buffer (pH: 10.2); and the content is gently stirred using a test tube mixture to achieve dissolution (2 mmol/L NAL solution). […]
ASSAY_READOUT: NAL depletion (%)
One number for each entry, in %.

Answered examples (4):
COc1cc(C=O)ccc1O :: 0.0
CC(C)O :: 4.6
Nc1ccc(S(N)(=O)=O)cc1 [Sulfanilamide] :: 3.6
CC(O)CO (stereo not shown) :: 5.0

Quick request: NAL depletion (%) for each listed item, please.
1. CC(O)C(=O)O (stereo not shown)
2. Cc1ccc2oc(=O)ccc2c1
3. O=C(O)c1ccccc1O
4. Clc1ccccc1
5. COc1ccc(C(C)=O)cc1
6. CCCCBr
7. O=c1ccc2ccccc2o1

[out]
1. 0.0
2. 0.1
3. 4.3
4. 0.1
5. 0.0
6. 0.0
7. 0.4

Quick request: NAL depletion (%) for each listed item, please.
1. COC(=O)c1ccccc1O [Methyl salicylate]
2. ClC(Cl)c1ccccc1 [Benzylidene dichloride]

[out]
1: 0.0; 2: 1.4

====

- PROTOCOL_NOTES: NAC depletion percent, HPLC-fluorescence detection
- SETTINGS: Fluorescence method; non-allergenic substance
Label Condition met when NAC depletion (%) is strictly below 0.4%; at or above that, label Condition not met.

# count of solved cases: 2
CC(=O)C1CCCCC1=O (stereo not drawn) [2-Acetylcyclohexanone] :: Condition not met
CCCCCCCC(=O)O [Octanoic acid] :: Condition met

Kindly review the next compound as well.
[in] Is NAC depletion (%) strictly under 0.4% for the entry ClC(Cl)c1ccccc1 [Benzylidene dichloride] ?
[out] Condition not met

====

- PROTOCOL_NOTES: NAL depletion percent, HPLC-fluorescence detection
- SETTINGS: single substance, test substance solution 1 mmol/L, fluorescence method
ASSAY_READOUT: NAL depletion (%)

C=C(C)C(=O)OCCOC(=O)C(=C)C [Ethylene glycol dimethacrylate] :: 1.5%
CC(C)=CCCC(C)=CCCC(C)=CC=O [Farnesal] :: 4.9%
C=CCc1ccc(OC)cc1 [4-Allylanisole] :: 0.7%
CCCCCCCCCCCCOC(=O)c1cc(O)c(O)c(O)c1 [Lauryl gallate] :: 15.9%
Sc1nc2ccccc2s1 [2-Mercaptobenzothiazole] :: 0.0%

[in] What value of NAL depletion (%) has been reported for the following compound? CCCCCC(C=O)=Cc1ccccc1 [α-Amylcinnamaldehyde]
[out] 0.4%

====

- PROTOCOL_NOTES: NAL depletion percent, HPLC-UV detection (281 nm)
- SETTINGS: single substance, test substance solution 1 mmol/L, Reference (UV method)
Consider the following partition of reported NAL depletion (%) into named classes: b0 = under 2%, b1 = from 2% up to 9%, b2 = 9% and over

# count of solved cases: 6
CCCCCCCCCCCCOC(=O)c1cc(O)c(O)c(O)c1 [Lauryl gallate] :: b2
Sc1nc2ccccc2s1 :: b0
O=CCc1ccccc1 :: b2
O=C1C=CC(=O)C=C1 :: b2
Oc1cccc(O)c1 :: b1
CCCCCCC#CC(=O)OC [Methyl 2-nonynoate] :: b0

[in] Which of the defined bands does the recorded NAL depletion (%) of `CCCCCCC(C=O)=Cc1ccccc1` sit within?
[out] b0

[in] Which of the defined bands does the recorded NAL depletion (%) of `CC(C)(C)C(=O)CC(=O)C(C)(C)C` sit within?
[out] b0

[in] Which of the defined bands does the recorded NAL depletion (%) of `O=c1c(-c2ccccc2)c1-c1ccccc1` sit within?
[out] b1

[in] Which of the defined bands does the recorded NAL depletion (%) of `O=c1[nH]sc2ccccc12` sit within?
[out] b0

[in] Which of the defined bands does the recorded NAL depletion (%) of `NC1=CC(=Nc2ccc(N)cc2)C(N)=CC1=Nc1ccc(N)cc1` sit within?
[out] b1

[in] Which of the defined bands does the recorded NAL depletion (%) of O=C(OCc1ccccc1)c1ccccc1 [Benzyl benzoate] sit within?
[out] b1

[in] Which of the defined bands does the recorded NAL depletion (%) of `CCC(=O)C=Cc1ccc(OC)cc1` sit within?
[out] b1

[in] Which of the defined bands does the recorded NAL depletion (%) of `CCO/C=C1\N=C(c2ccccc2)OC1=O` sit within?
[out] b2

[in] Which of the defined bands does the recorded NAL depletion (%) of C=C(C)C(=O)OCCOC(=O)C(=C)C [Ethylene glycol dimethacrylate] sit within?
[out] b1

[in] Which of the defined bands does the recorded NAL depletion (%) of `CCC=CC=CC=O` sit within?
[out] b2

====

- PROTOCOL_NOTES: NAC depletion percent, HPLC-fluorescence detection
- SETTINGS: single substance, test substance solution 1 mmol/L, fluorescence method
ASSAY_READOUT: NAC depletion (%)
Numbers only, in %.

Answered examples (3):
CCCCCCCCC(=O)Cl [Nonanoyl chloride] :: 8.9
NC1=CC(=Nc2ccc(N)cc2)C(N)=CC1=Nc1ccc(N)cc1 [Bandrowski's base] :: 100.0
O=CC=Cc1ccccc1 [Cinnamaldehyde] :: 54.1

[in] What value of NAC depletion (%) has been reported for the following molecule? O=CCCCC=O [Glutaraldehyde]
[out] 0.0

====

- PROTOCOL_NOTES: NAL depletion percent, HPLC-fluorescence detection
- SETTINGS: single substance, test substance solution 1 mmol/L, fluorescence method
Counter-ions that a name gives are not always drawn.
ASSAY_READOUT: NAL depletion (%)
Give the value; after it, write the unit.

C=C(C)C1CC=C(C=O)CC1 (stereo not shown) :: 7.1%
CCOC(=O)/C=C\C(=O)OCC [Diethyl maleate] :: 4.7%
O=c1c(-c2ccccc2)c1-c1ccccc1 :: 2.4%
CCCCCCCCCCCCCCCC(=O)Cl [Palmitoyl chloride] :: 98.3%
O=[N+]([O-])c1ccc(Cl)c([N+](=O)[O-])c1 :: 0.0%

Quick request: NAL depletion (%) for each listed item, please.
1. CCCCCCC#CC(=O)OC [Methyl 2-nonynoate]
2. O=C1C=CC(=O)C=C1
3. NC1=CC(=Nc2ccc(N)cc2)C(N)=CC1=Nc1ccc(N)cc1
4. O=C(O)c1ccc2c(c1)C(=O)OC2=O [Trimellitic anhydride]
5. CCO/C=C1\N=C(c2ccccc2)OC1=O

[out]
1. 3.2%
2. 71.8%
3. 1.7%
4. 94.2%
5. 65.5%

====

- PROTOCOL_NOTES: NAC depletion percent, HPLC-fluorescence detection
- SETTINGS: single substance, test substance solution 1 mmol/L, fluorescence method
Cut-off 1% on NAC depletion (%), inclusive. At or above means True; below means False.

# count of solved cases: 4
C=C(C)C(=O)OCCOC(=O)C(=C)C [Ethylene glycol dimethacrylate] :: True
CCCOC(=O)c1cc(O)c(O)c(O)c1 [Propyl gallate] :: True
O=C(O)c1ccc2c(c1)C(=O)OC2=O [Trimellitic anhydride] :: False
O=CCc1ccccc1 [Phenylacetaldehyde] :: True

[in] Check if NAC depletion (%) >= 1% (inclusive). Item: CC(C)(C)C(=O)CC(=O)C(C)(C)C [2,2,6,6-Tetramethyl-3,5-heptanedione]
[out] False

[in] Check if NAC depletion (%) >= 1% (inclusive). Item: O=C1C=CC(=O)C=C1 [p-Benzoquinone]
[out] True

====

- PROTOCOL_NOTES: NAL depletion percent, HPLC-fluorescence detection
- SETTINGS: single substance, test substance solution 1 mmol/L, fluorescence method
- Procedure: 1) To a 50 mL vessel, 12.6 mg (±0.1 mg) of NAL is weighed; to this, a 25 mL measuring pipet is used to add 20 mL of 100 mmol/L phosphate buffer (pH: 10.2); and the content is gently stirred using a test tube mixture to achieve dissolution (2 mmol/L NAL solution). […]
ASSAY_READOUT: NAL depletion (%)
Numbers only, in %.

Cn1sc(Cl)cc1=O [5-Chloro-methyl-4-isothiazolin-3-one] :: 9.3
O=C(O)C(=O)O [Oxalic acid] :: 0.3
O=CCCCC=O [Glutaraldehyde] :: 47.4

// next entry
[in] What value of NAL depletion (%) has been reported for the following compound? O=CC=Cc1ccccc1 [Cinnamaldehyde]
[out] 12.8

The reported numbers originate from patent US20210181109A1.
